target: JAK3 (Homo sapiens, UniProt P52333); construct: made in house; host or cells: SF9 insect cells (baculovirus); experiment: JAK3 inhibition (Table 4); format: biochemical; details: read-out: JAK3 Ki
Sequence (P52333 783-1124): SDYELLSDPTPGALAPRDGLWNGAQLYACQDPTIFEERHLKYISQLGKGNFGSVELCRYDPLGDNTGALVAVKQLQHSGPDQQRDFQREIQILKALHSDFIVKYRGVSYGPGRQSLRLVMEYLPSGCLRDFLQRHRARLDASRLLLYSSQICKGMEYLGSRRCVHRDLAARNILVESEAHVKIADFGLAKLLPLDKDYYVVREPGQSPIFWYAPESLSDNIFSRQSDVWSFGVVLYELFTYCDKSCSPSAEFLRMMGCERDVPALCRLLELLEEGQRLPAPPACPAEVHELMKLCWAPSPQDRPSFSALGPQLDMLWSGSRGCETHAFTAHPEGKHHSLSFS
Kindly supply the reported Ki values for the records listed here.
Numbers only, in µM.

{"Molecule": "O=C([C@@H]1CC(F)(F)CN1)N1CCC(n2cnc3cnc4[nH]ccc4c32)CC1 [Example 250]", "Endpoint unit": "µM", "Ki": 0.336}
{"Molecule": "CNC(=O)Cc1nc2cnc3[nH]ccc3c2n1C1CCN(Cc2ccccc2)CC1 [Example 21]", "Endpoint unit": "µM", "Ki": 0.0376}
{"Molecule": "Cc1nc2cnc3[nH]ccc3c2n1C1CCN(CC(C)O)CC1 (centres unmarked) [Example 701]", "Endpoint unit": "µM", "Ki": 0.234}
{"Molecule": "CC(C)CN[C@H]1CC[C@H](n2cnc3cnc4[nH]ccc4c32)CC1 [Example 569]", "Endpoint unit": "µM", "Ki": 0.448}

Fill in Ki for each of the 6 molecules listed.
1. O=C(Cc1nc2cnc3[nH]ccc3c2n1C1CCCOC1)N1CCC(F)(F)CC1 (racemic) [Example 978]
2. CC(C)OCc1nc2cnc3[nH]ccc3c2n1C1CCN(CCC#N)CC1 [Example 842]
3. CC(O)c1nc2cnc3[nH]ccc3c2n1C1CCN(C(=O)N(C)C)CC1 (racemic) [Example 528]
4. CC(C)(C)OC(=O)N1CCC[C@@H](CN[C@H]2CC[C@H](n3cnc4cnc5[nH]ccc5c43)CC2)C1 [Example 566]
5. CC1CC(n2cnc3cnc4[nH]ccc4c32)CCN1Cc1ccccc1 (racemic) [Example 127]
6. N#CCC(=O)NC1CCC(n2cnc3cnc4[nH]ccc4c32)C1 (racemic) [Example 629]

Completion:
0.124
0.236
0.187
0.498
0.00846
0.011

Fill in Ki for each of the 7 molecules listed.
1. Cc1nc2cnc3[nH]ccc3c2n1[C@@H]1CC[C@@H](NCC(F)(F)F)C1 [Example 720]
2. Cc1nc2cnc3[nH]ccc3c2n1C(C)C1CCCO1 (single isomer, unassigned) [Example 426]
3. CC(O)c1nc2cnc3[nH]ccc3c2n1C1CCN(CCC(F)(F)F)CC1 (centres unmarked) [Example 759]
4. O=C(Cc1ccccc1)N1CC[C@@H](n2cnc3cnc4[nH]ccc4c32)C1 [Example 430]
5. COCC(=O)NCCc1nc2cnc3[nH]ccc3c2n1C1CCCOC1 (racemic) [Example 860]
6. O=C(N[C@H]1CC[C@H](n2cnc3cnc4[nH]ccc4c32)CC1)OCC1CC1 [Example 140]
7. CC(C)C(=O)N1CC(c2nc3cnc4[nH]ccc4c3n2C2CCN(CCC#N)CC2)C1 [Example 389]

Completion:
1: 0.0881; 2: 0.0262; 3: 0.0372; 4: 1.24; 5: 0.561; 6: 0.0881; 7: 0.0483
